Data origin: ChEMBL document CHEMBL1133356

target-or-system: UniProt:P18031
Sequence (P18031 whole entry): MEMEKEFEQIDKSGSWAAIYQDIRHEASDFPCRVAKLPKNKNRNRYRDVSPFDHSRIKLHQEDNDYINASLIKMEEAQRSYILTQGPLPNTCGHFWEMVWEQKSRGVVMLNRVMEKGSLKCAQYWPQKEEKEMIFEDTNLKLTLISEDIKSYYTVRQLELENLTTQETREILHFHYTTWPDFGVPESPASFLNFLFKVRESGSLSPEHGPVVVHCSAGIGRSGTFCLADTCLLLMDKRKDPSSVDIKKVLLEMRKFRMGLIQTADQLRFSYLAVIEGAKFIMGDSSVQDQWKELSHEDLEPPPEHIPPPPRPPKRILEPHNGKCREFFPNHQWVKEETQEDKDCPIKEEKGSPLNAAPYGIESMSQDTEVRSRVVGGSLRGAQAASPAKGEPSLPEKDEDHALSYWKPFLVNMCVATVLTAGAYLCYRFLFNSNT
Peptide text beside a SMILES is read from it.
test-readout: pIC50
One number for each entry, as −log10 of the molar value.

Some molecules with known pIC50 results, for comparison:
CC(=O)N[C@@H](CC(=O)O)C(=O)N[C@@H](C)C(=O)N[C@@H](CC(=O)O)C(=O)N[C@@H](CCC(=O)O)C(=O)N[C@@H](Cc1ccc(CC(=O)O)cc1)C(=O)N[C@@H](CC(C)C)C(N)=O (HELM PEPTIDE1{[ac].D.A.D.E.[O=C(O)Cc1ccc(C[C@H](N[*:1])C(=O)[*:2])cc1].L.[am]}$$$$V2.0) | 2.60
CC(=O)N[C@@H](CC(=O)O)C(=O)N[C@@H](C)C(=O)N[C@@H](CC(=O)O)C(=O)N[C@@H](CCC(=O)O)C(=O)N[C@@H](Cc1ccc(C(F)(F)C(=O)O)cc1)C(=O)N[C@@H](CC(C)C)C(N)=O (HELM PEPTIDE1{[ac].D.A.D.E.[O=C(O)C(F)(F)c1ccc(C[C@H](N[*:1])C(=O)[*:2])cc1].L.[am]}$$$$V2.0) | 3.19
CC(=O)N[C@@H](CC(=O)O)C(=O)N[C@@H](C)C(=O)N[C@@H](CC(=O)O)C(=O)N[C@@H](CCC(=O)O)C(=O)N[C@@H](Cc1ccc(C(=O)O)c(O)c1)C(=O)N[C@@H](CC(C)C)C(N)=O (HELM PEPTIDE1{[ac].D.A.D.E.[O=C(O)c1ccc(C[C@H](N[*:1])C(=O)[*:2])cc1O].L.[am]}$$$$V2.0) | 2.28

Give the measured pIC50 of CC(=O)N[C@@H](CC(=O)O)C(=O)N[C@@H](C)C(=O)N[C@@H](CC(=O)O)C(=O)N[C@@H](CCC(=O)O)C(=O)N[C@@H](Cc1ccc(C(F)(C(=O)O)C(=O)O)cc1)C(=O)N[C@@H](CC(C)C)C(N)=O (HELM PEPTIDE1{[ac].D.A.D.E.[O=C(O)C(F)(C(=O)O)c1ccc(C[C@H](N[*:1])C(=O)[*:2])cc1].L.[am]}$$$$V2.0) .
3.37
